# key: entry, value: minimal effective dose
system: compound-treated mice; experiment: Neuropharmacological assay (SmartCube): behavioral activity signature and minimal effective dose; type: in vivo; conditions: Mus musculus, ip, MED = dose having 50% or more total activity, read-out: Potency: minimal effective dose (MED), binned
measure: minimal effective dose

• CC[C@H]1OCc2ccccc2[C@@H]1N (single isomer, unassigned) = 3 to 10 mg/kg
• CC[C@H]1OCc2ccc(F)cc2[C@@H]1N = < 3 mg/kg
• CCc1ccc2c(c1)[C@H](N)[C@@H](C)OC2.Cl = 3 to 10 mg/kg
• Cc1cccc2c1[C@H](N)CO[C@@H]2C = 10 to 30 mg/kg
• CCCN[C@@H]1COCc2ccccc21.Cl = 10 to 30 mg/kg

* * *

system: compound-treated mice; test: Neuropharmacological assay (SmartCube): behavioral activity signature and minimal effective dose; type: in vivo; details: i.p. 15 min before test, most efficacious dose(s)
measure: CE: cognitive enhancer (probability of activity signature)

- Cl.NC1COCc2c(F)cccc21 (stereo not shown) [Example 23]: ++ (5% ≤ ++ <25%)
- COc1cccc2c1COCC2N.Cl (stereo not shown) [Example 24]: + (LOQ ≤ + <5%)
- CC[C@H]1OCc2cccc(C)c2[C@@H]1N.Cl [Example 207]: ++ (5% ≤ ++ <25%)
- C[C@H]1OCc2cccc(F)c2[C@@H]1N.Cl [Example 216]: + (LOQ ≤ + <5%)
- C[C@H]1OCc2c(F)cccc2[C@@H]1N.Cl [Example 214]: ++ (5% ≤ ++ <25%)
- C[C@H]1OCc2ccc(Cl)c(Cl)c2[C@@H]1N.Cl [Example 92]: + (LOQ ≤ + <5%)
- CC[C@@H]1OCc2ccccc2[C@@H]1N (single isomer, unassigned) [Example 191]: ++ (5% ≤ ++ <25%)
- Cc1ccc2c(c1)[C@H](N)CCOC2 (single isomer, unassigned) [Example 115]: ++ (5% ≤ ++ <25%)
- Cc1ccc2c(c1)CO[C@@H](C)[C@H]2N [Example 189]: ++ (5% ≤ ++ <25%)
- COc1ccc2c(c1)COCC2N.Cl (stereo not shown) [Example 14]: + (LOQ ≤ + <5%)
- Cc1cccc2c1[C@@H](C)OC[C@H]2N (single isomer, unassigned) [Example 254]: + (LOQ ≤ + <5%)
- C[C@@H]1OCc2cccc(F)c2[C@@H]1N.Cl [Example 217]: ++ (5% ≤ ++ <25%)
- Cc1cccc2c1[C@H](N)[C@@H](C)OC2.Cl [Example 83]: ++ (5% ≤ ++ <25%)
- Cc1ccc2c(c1C)C(N)CCOC2.Cl (stereo not shown) [Example 43]: ++ (5% ≤ ++ <25%)
- COc1ccc2c(c1)[C@H](N)[C@H](C)OC2.Cl [Example 84]: ++ (5% ≤ ++ <25%)
- CC[C@@H]1OCc2ccc(C)cc2[C@@H]1N.Cl (relative stereo) [Example 100]: ++ (5% ≤ ++ <25%)

* * *

test system: compound-treated mice; test: Neuropharmacological assay (SmartCube): behavioral activity signature and minimal effective dose; assay type: in vivo; conditions: Mus musculus, ip, MED = dose having 50% or more total activity, read-out: Potency: minimal effective dose (MED), binned
# key: entry, value: minimal effective dose
measure: minimal effective dose

- CC[C@@H]1OCc2ccc(C)cc2[C@@H]1N (single isomer, unassigned): < 3 mg/kg
- CCCN[C@@H]1c2ccccc2CO[C@H]1C.Cl: 3 to 10 mg/kg
- CCCN[C@H]1COCc2ccccc21.Cl: 3 to 10 mg/kg
- CCCN[C@H]1c2ccccc2CO[C@@H]1C.Cl: 3 to 10 mg/kg
- CCN(C)C(=O)Oc1ccc2c(c1)CO[C@@H](C)[C@H]2N.Cl: 3 to 10 mg/kg
- CCN(C)C(=O)Oc1ccc2c(c1)C(N)COC2.Cl (stereo not shown): > 30 mg/kg
- COc1cccc2c1CO[C@@H](C)[C@H]2N.Cl: 10 to 30 mg/kg
- CC(C)C[C@@H]1OCc2ccccc2[C@@H]1N: 3 to 10 mg/kg
- C#CCN[C@@H]1COCc2ccccc21.Cl: < 3 mg/kg
- CC[C@@H]1OCc2ccc(F)cc2[C@@H]1N: < 3 mg/kg

* * *

system: compound-treated mice; experiment: Neuropharmacological assay (SmartCube): behavioral activity signature and minimal effective dose; format: in vivo; conditions: i.p. 15 min before test, most efficacious dose(s)
measure: CE: cognitive enhancer (probability of activity signature)

- C[C@H]1OCc2ccccc2[C@@H]1N (single isomer, unassigned) [Example 151]: ++ (5% ≤ ++ <25%)
- Cc1ccc2c(c1)[C@H](N)[C@@H](C(C)C)OC2 [Example 210]: ++ (5% ≤ ++ <25%)
- Cl.NC1COCc2ccc(C(F)(F)F)cc21 (centres unmarked) [Example 9]: ++ (5% ≤ ++ <25%)

* * *

Tested on: compound-treated mice
Experiment: Neuropharmacological assay (SmartCube): behavioral activity signature and minimal effective dose
Assay type: in vivo
Conditions: i.p. 15 min before test, most efficacious dose(s)
From the text: Neurosci. 2011 Sep. 9; 5:103 (doi: 10.3389/fnins.2011.00103) (“Roberds”). […] To facilitate testing of multiple compounds for behavioral effects relevant to psychiatric disease, PsychoGenics, Inc. (Tarrytown, N.Y., “PGI”) developed SmartCube™, an automated system in which behaviors of compound-treated mice are captured by digital video and analyzed with computer algorithms. […] where LOQ is the limit of quantification. […]
Where a name gives a salt, the structure may show the parent alone.
measure: CE: cognitive enhancer (probability of activity signature)

- Cc1ccc2c(c1)[C@H](N)[C@H](C)COC2.Cl (relative stereo): + (LOQ ≤ + <5%)
- CN[C@@H]1CO[C@H](C)c2ccccc21 (relative stereo) [Example 240, hydrochloride]: ++ (5% ≤ ++ <25%)
- Cc1ccc(Cl)c2c1[C@H](N)COC2 (single isomer, unassigned): ++ (5% ≤ ++ <25%)
- CCN(C)C(=O)Oc1ccc2c(c1)[C@H](N(C)C)[C@H](C)OC2.Cl: + (LOQ ≤ + <5%)
- CCCN[C@@H]1c2ccccc2CO[C@H]1C.Cl: + (LOQ ≤ + <5%)
- Cc1ccc2c(c1)C(N)COCC2.Cl (stereo not drawn): ++ (5% ≤ ++ <25%)
- Cc1ccc2c(c1Cl)C(N)COC2.Cl (stereo not drawn): ++ (5% ≤ ++ <25%)
- CCN(C)C(=O)Oc1ccc2c(c1)CO[C@@H](C)[C@H]2N.Cl: + (LOQ ≤ + <5%)
- C[C@@H]1OCc2ccccc2[C@@H]1N.Cl (relative stereo): ++ (5% ≤ ++ <25%)

* * *

system: compound-treated mice; test: Neuropharmacological assay (SmartCube): behavioral activity signature and minimal effective dose; assay type: in vivo; settings: i.p. 15 min before test, most efficacious dose(s)
Structures can show the parent of a compound that is named as a salt.
measure: CE: cognitive enhancer (probability of activity signature)

- Cc1nc2c3c(ccc2s1)COCC3N.Cl (stereo not shown): ++ (5% ≤ ++ <25%)
- CC[C@H]1OCc2ccc(F)cc2[C@@H]1N: ++ (5% ≤ ++ <25%)
- Cl.NC1COCCc2ccc3ccccc3c21 (stereo not shown) [Example 32]: + (LOQ ≤ + <5%)
- CC1(C)OCc2ccccc2C1N.Cl (stereo not shown): + (LOQ ≤ + <5%)
- Cc1cccc2c1[C@H](N)COC2 (single isomer, unassigned): ++ (5% ≤ ++ <25%)
- CN[C@@H]1CO[C@@H](C)c2ccccc21 (relative stereo) [Example 236, hydrochloride]: + (LOQ ≤ + <5%)
- COc1cccc2c1[C@H](N)[C@@H](C)OC2.Cl: ++ (5% ≤ ++ <25%)
- Cc1cccc2c1COCCC2N.Cl (stereo not shown): ++ (5% ≤ ++ <25%)
- CCN(C)C(=O)Oc1ccc2c(c1)[C@H](N)[C@@H](C)OC2.Cl: + (LOQ ≤ + <5%)
- C#CCN[C@H]1c2ccccc2CO[C@@H]1C.Cl: + (LOQ ≤ + <5%)

* * *

System: compound-treated mice
Test: Neuropharmacological assay (SmartCube): behavioral activity signature and minimal effective dose
Type: in vivo
Settings: i.p. 15 min before test, most efficacious dose(s)
Source text: Neurosci. 2011 Sep. 9; 5:103 (doi: 10.3389/fnins.2011.00103) (“Roberds”). […] To facilitate testing of multiple compounds for behavioral effects relevant to psychiatric disease, PsychoGenics, Inc. (Tarrytown, N.Y., “PGI”) developed SmartCube™, an automated system in which behaviors of compound-treated mice are captured by digital video and analyzed with computer algorithms. […] where LOQ is the limit of quantification. […]
measure: CE: cognitive enhancer (probability of activity signature)

* Cc1ccc2c(c1)C(N)C(C)(C)COC2.Cl (centres unmarked) | ++ (5% ≤ ++ <25%)
* Cl.NC1CCOCc2c(Cl)cccc21 (centres unmarked) | ++ (5% ≤ ++ <25%)
* C[C@H]1OCc2cccc(Cl)c2[C@@H]1N | + (LOQ ≤ + <5%)
* COc1cccc2c1CO[C@@H](C)[C@H]2N.Cl | ++ (5% ≤ ++ <25%)
* CCN(C)C(=O)Oc1ccc2c(c1)[C@H](N)[C@H](C)OC2.Cl | + (LOQ ≤ + <5%)
